Biological target: hCB2 receptor (Homo sapiens)
Sequence (P34972 whole entry): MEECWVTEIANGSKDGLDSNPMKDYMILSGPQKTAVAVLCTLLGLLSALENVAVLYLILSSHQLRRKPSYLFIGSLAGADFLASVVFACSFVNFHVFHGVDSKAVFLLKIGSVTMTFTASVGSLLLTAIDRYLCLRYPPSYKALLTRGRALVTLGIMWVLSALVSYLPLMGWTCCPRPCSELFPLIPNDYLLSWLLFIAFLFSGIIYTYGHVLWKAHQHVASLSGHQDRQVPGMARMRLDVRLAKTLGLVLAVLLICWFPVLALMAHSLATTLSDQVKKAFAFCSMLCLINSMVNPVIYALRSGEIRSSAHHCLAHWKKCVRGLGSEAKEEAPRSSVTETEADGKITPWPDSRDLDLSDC
Assay: hCB2 Gαq16-coupled calcium mobilization assay in CHO-K1 cells
Conditions: hCB2 Ca EC50, CHO cells expressing hCB2 and Gαq16, calcium mobilization
Recorded EC50 split into classes range A = under 40 nM, range B = from 40 nM up to 100 nM, range C = 100 nM and over

smiles text	assigned category
CC(C)(C#N)CCCn1nc(C(=O)NC(C)(C)c2cccc(C(N)=O)c2)c2ccccc21	range C

Here's the next entry for you.
Lab log: CNC(=O)[C@@H](NC(=O)c1nn(Cc2ccc(F)cc2)c2ccccc12)C(C)C — assign EC50 category
range A

---

Answer each item with its documented log10(EC50).
Biological target: hCB1 receptor (Homo sapiens, UniProt P21554)
Sequence (P21554 whole entry): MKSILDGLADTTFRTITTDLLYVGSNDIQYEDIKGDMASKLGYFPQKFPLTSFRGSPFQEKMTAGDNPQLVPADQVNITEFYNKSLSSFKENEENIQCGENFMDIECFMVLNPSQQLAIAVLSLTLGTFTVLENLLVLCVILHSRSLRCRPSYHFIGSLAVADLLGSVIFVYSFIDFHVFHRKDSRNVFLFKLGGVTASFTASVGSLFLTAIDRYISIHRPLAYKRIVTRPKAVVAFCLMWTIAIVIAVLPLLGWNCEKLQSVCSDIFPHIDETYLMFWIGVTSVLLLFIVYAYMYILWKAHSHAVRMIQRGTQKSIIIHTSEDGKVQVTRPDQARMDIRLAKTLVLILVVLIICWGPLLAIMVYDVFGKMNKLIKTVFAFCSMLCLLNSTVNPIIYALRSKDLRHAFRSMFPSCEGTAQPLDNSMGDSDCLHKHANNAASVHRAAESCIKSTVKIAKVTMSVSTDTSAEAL
Test: hCB1 Gαq16-coupled calcium mobilization assay in CHO-K1 cells
Conditions: hCB1 Ca EC50, CHO cells expressing hCB1 and Gαq16, calcium mobilization
// stored as log10 of EC50 expressed in nM

These recorded examples may help you get a feel for the data.
compound	measured result
CC(C)(CN1CCC[C@H]1C(N)=O)NC(=O)c1nn(Cc2ccc(F)cc2)c2ccccc12	1.51
NC(=O)[C@@H]1CCCN1C(=O)C1(NC(=O)c2nn(Cc3ccc(F)cc3)c3ccccc23)CC1	2.23
CC(C)(C#N)CCCn1nc(C(=O)NC(C)(C)c2cccc(C(N)=O)c2)c2ccccc21	2.87
CC(C)[C@H](NC(=O)c1nn(Cc2ccc(F)cc2)c2ccccc12)C(=O)O	3.74
CN(CC(N)=O)C(=O)C(C)(C)NC(=O)c1nn(Cc2ccc(F)cc2)c2ccccc12	2.45

Dear colleague, could you please provide log10(EC50) for the compounds listed below?
1. CC(C)(NC(=O)c1nn(Cc2ccc(F)cc2)c2ccccc12)c1cccc(C(N)=O)c1
2. NC(=O)N1CCC[C@@H](CNC(=O)c2nn(Cc3ccc(F)cc3)c3ccccc23)C1
3. NC(=O)c1cccc(CNC(=O)c2nn(Cc3ccc(F)cc3)c3ccccc23)c1

1. 1.40
2. 2.98
3. 1.58

Give measured log10(EC50) for every item shown.
1. NC(=O)[C@H](Cc1ccccc1)NC(=O)c1nn(Cc2ccc(F)cc2)c2ccccc12
2. CC(c1ccc(F)cc1)n1nc(C(=O)NC(C)(C)c2cccc(C(N)=O)c2)c2ccccc21 (stereo not drawn)
3. CC(C)(NC(=O)c1nn(Cc2ccc(F)cc2)c2ccccc12)c1cccc(NC(N)=O)c1

1. 2.53
2. 2.39
3. 2.77

For each of the compounds below, state log10(EC50).
1. CC(C)(NC(=O)c1nn(CC2CCCC2)c2ccccc12)c1cccc(C(N)=O)c1
2. NC(=O)CN1CCC[C@H](CNC(=O)c2nn(Cc3ccc(F)cc3)c3ccccc23)C1

2.95
2.38

log10(EC50) lookup needed for CC(C)(NC(=O)c1nn(CCCCC#N)c2ccccc12)c1cccc(C(N)=O)c1 , thanks.
2.86
